Biological target: CB1 receptor (Rattus norvegicus, UniProt P20272)
Construct: from tissue; host or cells: rat whole brain, P2 membranes
Sequence (P20272 whole entry): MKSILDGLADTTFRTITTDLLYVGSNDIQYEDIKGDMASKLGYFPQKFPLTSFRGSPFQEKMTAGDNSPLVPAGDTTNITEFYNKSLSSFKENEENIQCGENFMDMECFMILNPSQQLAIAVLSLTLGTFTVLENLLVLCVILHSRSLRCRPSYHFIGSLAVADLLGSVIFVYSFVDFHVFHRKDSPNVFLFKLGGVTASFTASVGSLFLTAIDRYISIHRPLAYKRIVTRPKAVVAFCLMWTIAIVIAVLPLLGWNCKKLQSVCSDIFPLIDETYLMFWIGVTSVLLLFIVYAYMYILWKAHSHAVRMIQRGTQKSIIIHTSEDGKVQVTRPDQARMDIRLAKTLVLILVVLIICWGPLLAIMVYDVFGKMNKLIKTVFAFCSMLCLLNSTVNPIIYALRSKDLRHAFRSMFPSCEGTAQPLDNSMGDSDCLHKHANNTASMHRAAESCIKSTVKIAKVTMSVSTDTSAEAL
Experiment: CB1 assay: displacement of [3H]CP-55,940 from rat brain membrane preparation
Format: binding
Settings: rat brain membranes; read-out: Ki at CB1 receptor
measurement.name: Ki (nM)
Reply with just the number (in nM).

Use these answered entries as a reference point.
compound	measurement.name	numeric.value
CCCCCn1cc(C(=O)c2cccc3ccc(CC)cc23)c2ccccc21 [JWH-234, 1-Pentyl-3-(7-ethyl-1-naphthoyl)indole]	Ki	8.4
CCCCCC(C)(C)c1ccc2c(c1)OC(C)(C)C1CC=C(CO)CC21 (stereo not shown) [Compound 9e]	Ki	1.8
CCCn1c(C)c(C(=O)c2ccc(C)c3ccccc23)c2ccccc21 [JWH-148]	Ki	123

Consider the additional compound presented here.
Request: Suppose we examine the compound CCCn1cc(C(=O)c2ccc(C)c3ccccc23)c2ccccc21 [JWH-120, 1-Propyl-3-(4-methyl-1-naphthoyl)indole] ; what Ki value has been reported?
Response: 1050

---

Molecular target: CB1 receptor (Rattus norvegicus, UniProt P20272)
Construct: from tissue; host or cells: rat whole brain, P2 membranes
Assay: CB1 assay: displacement of [3H]CP-55,940 from rat brain membrane preparation
Assay type: binding
Settings: Table 1; mean ± SEM; rat brain membranes, [3H]CP 55,940; read-out: Ki CB1
Entries and their Ki values follow.

These recorded examples may help you get a feel for the data.
molecule	Ki
CCC(C)(C)c1cc(OC)c2c(c1)OC(C)(C)C1CC=C(CO)CC21 (stereo not shown) [Compound 11b]	1010 nM
COc1cc(C(C)(C)C)cc2c1C1CC(C)=CCC1C(C)(C)O2 (stereo not shown) [Compound 6a]	> 10000 nM
CCC(C)(C)c1cc(OC)c2c(c1)OC(C)(C)C1CC=C(C)CC21 (stereo not shown) [Compound 6b]	> 10000 nM

Request: Fill blank: measured Ki of the molecule CCCCC(C)(C)c1ccc2c(c1)OC(C)(C)C1CC=C(CO)CC21 (stereo not shown) [Compound 9d] is ____.
Response: 8.8 nM

---

Entries and their Emax values follow.
Target: CB2 receptor (Homo sapiens)
Test: [35S]GTPγS binding in human CB2 receptor-expressing CHO cell membranes
Type: biochemical
Parameters: expressed in transfected cells
Details: read-out: Emax (% CP-55940)
Just the number in %, nothing appended.

The examples below pair each entry with its known result.
input.smiles	Emax, %
CCCn1c(C)c(C(=O)c2cccc3cc(OC)ccc23)c2ccccc21	108
CCCn1c(C)c(C(=O)c2cccc3ccccc23)c2ccccc21	65.7
CCCn1cc(C(=O)c2ccc(C)c3ccccc23)c2ccccc21	78.1

Now let's try a different one.
Request: Which measured Emax belongs to "CCCCCn1cc(C(=O)c2c(OC)ccc3ccccc23)c2ccccc21" , tested on CB2 receptor (Homo sapiens)?
Response: 67.3

---

Molecular target: CB1 receptor (Rattus norvegicus)
Construct: from tissue; host or cells: rat whole brain, P2 membranes
Experiment: CB1 assay: displacement of [3H]CP-55,940 from rat brain membrane preparation
Format: binding
Conditions: rat brain membranes; read-out: Ki at CB1 receptor
measurement.name: pKi
Please treat pKi as minus the base-10 logarithm of the molar concentration.

compound	measurement.name	numeric.value
CCCn1c(C)c(C(=O)c2ccc(CC)c3ccccc23)c2ccccc21 [JWH-211]	pKi	7.15
CCCn1cc(C(=O)c2cccc3ccc(C)cc23)c2ccccc21 [JWH-076, 1-Propyl-3-(7-methyl-1-naphthoyl)indole]	pKi	6.67
CCCn1c(C)c(C(=O)c2cccc3ccc(OC)cc23)c2ccccc21 [JWH-160]	pKi	5.80

# ---- query compound ----
Request: Write down the reported pKi of CCCn1cc(C(=O)c2cccc3ccc(OC)cc23)c2ccccc21 [JWH-165, 1-Propyl-3-(7-methoxy-1-naphthoyl)indole] , test system: CB1 receptor (Rattus norvegicus).
Response: 6.69

---

Parameter Ratio CB17CB2: see the listing below.
Biological target: CB2 receptor (Homo sapiens, UniProt P34972)
Sequence (P34972 whole entry): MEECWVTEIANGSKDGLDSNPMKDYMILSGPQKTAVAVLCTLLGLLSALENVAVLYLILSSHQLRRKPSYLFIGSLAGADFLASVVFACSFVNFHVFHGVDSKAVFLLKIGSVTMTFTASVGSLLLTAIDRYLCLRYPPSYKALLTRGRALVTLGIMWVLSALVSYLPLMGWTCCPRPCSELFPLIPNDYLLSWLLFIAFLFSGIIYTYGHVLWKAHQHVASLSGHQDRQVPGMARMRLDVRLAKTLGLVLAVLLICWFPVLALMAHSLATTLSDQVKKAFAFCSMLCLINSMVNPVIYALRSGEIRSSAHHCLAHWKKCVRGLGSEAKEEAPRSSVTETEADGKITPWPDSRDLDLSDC
Assay: CB2 assay: displacement of [3H]CP-55,940 from cloned human CB2 receptor preparation (transfected HEK 293 cells)
Type: binding
Design: expressed in transfected cells
Settings: Table 2; ratio of Ki values

Worked examples follow.
input.smiles	Ratio CB17CB2
CCCn1cc(C(=O)c2cccc3ccccc23)c2ccccc21	6.2
CCCCc1ccc(C(=O)c2cn(CCC)c3ccccc23)c2ccccc12	6.6
CCCc1ccc(C(=O)c2cn(CCC)c3ccccc23)c2ccccc12	2.7

Request: What Ratio CB17CB2 value was documented for this compound, "CCCCc1ccc(C(=O)c2c(C)n(CCC)c3ccccc23)c2ccccc12" ?
Response: 3.0

Request: I have this compound here, "CCCn1cc(C(=O)c2ccc(C)c3ccccc23)c2ccccc21" , and I need its recorded Ratio CB17CB2.
Response: 173

Request: Name the recorded Ratio CB17CB2 for "CCCCCn1c(C)c(C(=O)c2ccc(CCC)c3ccccc23)c2ccccc21" .
Response: 2.1

Request: Look at this compound and give its reported Ratio CB17CB2. "CCCn1cc(C(=O)c2ccc(CC)c3ccccc23)c2ccccc21"
Response: 3.3

Request: Can you share its Ratio CB17CB2? I mean this compound: "CCCn1c(C)c(C(=O)c2ccc(C)c3ccccc23)c2ccccc21"
Response: 8.8

Request: For the compound "CCCCCn1cc(C(=O)c2ccc(CC)c3ccccc23)c2ccccc21" , what Ratio CB17CB2 is on record?
Response: 0.67

Request: Query (compound): "CCCCCn1c(C)c(C(=O)c2cccc3ccccc23)c2ccccc21" ; field requested: Ratio CB17CB2
Response: 3.3

Request: Return reported Ratio CB17CB2; argument: "CCCCCn1c(C)c(C(=O)c2ccc(C)c3ccccc23)c2ccccc21"
Response: 6.8

---

Target: CB2 receptor (Homo sapiens)
Assay: CB2 assay: displacement of [3H]CP-55,940 from cloned human CB2 receptor preparation (transfected HEK 293 cells)
Assay type: binding
Design: expressed in transfected cells
Conditions: cloned human CB2; read-out: Ki at CB2 receptor
Attribute: Ki
Give the number; nM is assumed, so skip it.

Look over these answered cases.
molecule	units.symbol	Ki
CCCCc1ccc(C(=O)c2c(C)n(CCC)c3ccccc23)c2ccccc12	nM	49
CCCCCC(C)(C)c1ccc2c(c1)OC(C)(C)C1CC=C(CO)CC21 (stereo not shown)	nM	0.52
CCCn1c(C)c(C(=O)c2ccc(C)c3ccccc23)c2ccccc21	nM	14

Request: Looking for the measured Ki of "CCCCc1ccc(C(=O)c2cn(CCC)c3ccccc23)c2ccccc12" , can you help?
Response: 52

Request: GET /values?readout=Ki&item= COc1cc(C(C)(C)C)cc2c1C1CC(C)=CCC1C(C)(C)O2 (stereo not shown)
Response: 1870

Request: Name the reported Ki value associated with the molecule "CCCCCn1c(C)c(C(=O)c2cccc3cc(OC)ccc23)c2ccccc21"
Response: 11

Request: Need Ki, item "CCCn1cc(C(=O)c2ccc(OCC)c3ccccc23)c2ccccc21"
Response: 74

Request: // Ki lookup, key: "CCCn1cc(C(=O)c2cccc3ccc(OC)cc23)c2ccccc21"
Response: 71

Request: Param item = "CCCn1cc(C(=O)c2c(OC)ccc3ccccc23)c2ccccc21" ; retrieve measured Ki.
Response: 80

Request: GET /values?readout=Ki&item= "CCCn1cc(C(=O)c2cccc3ccc(C)cc23)c2ccccc21"
Response: 106

---

Molecular target: CB2 receptor (Homo sapiens)
Assay: CB2 assay: displacement of [3H]CP-55,940 from cloned human CB2 receptor preparation (transfected HEK 293 cells)
Assay type: binding
Set-up: expressed in transfected cells
Conditions: Table 1; ratio of Ki values
Labelling field: enter condition met if recorded Ratio CB1/CB2 is less than 30. Enter condition not met if it equals or exceeds that cut-off.

Worked examples follow.
compound	label
CCCC(C)(C)c1ccc2c(c1)OC(C)(C)[C@@H]1CC=C(CO)C[C@@H]21 [Compound 9c]	condition met
CCC(C)(C)c1ccc2c(c1)OC(C)(C)[C@@H]1CC=C(CO)C[C@@H]21 [Compound 9b]	condition not met
CCCCC(C)(C)c1ccc2c(c1)OC(C)(C)C1CC=C(CO)CC21 (centres unmarked) [Compound 9d]	condition met
CCCC(C)(C)c1ccc2c(c1)OC(C)(C)C1CC=C(C)CC21 (centres unmarked) [Compound 3, 3-(1′,1′-Dimethylbutyl)-1-deoxy-Δ^8-THC, reference compound]	condition not met

Request: Take the compound CCCC(C)(C)c1cc(OC)c2c(c1)OC(C)(C)[C@@H]1CC=C(C)C[C@@H]21 [Compound 6c] and say whether its Ratio CB1/CB2 is less than 30.
Response: condition not met

---

Ki by entry:
Target: CB1 receptor (Rattus norvegicus, UniProt P20272)
Construct: from tissue; host or cells: rat whole brain, P2 membranes
Experiment: CB1 assay: displacement of [3H]CP-55,940 from rat brain membrane preparation
Format: binding
The response must be a number in nM with no trailing unit.

Worked cases, Ki given:
compound	numeric.value
CCCC(C)(C)c1cc(OC)c2c(c1)OC(C)(C)[C@@H]1CC=C(CO)C[C@@H]21 [Compound 11c]	347
CCCCCCC(C)(C)c1cc(OC)c2c(c1)OC(C)(C)[C@@H]1CC=C(C)C[C@@H]21 [Compound 4, reference compound]	713
CCC(C)(C)c1ccc2c(c1)OC(C)(C)[C@@H]1CC=C(CO)C[C@@H]21	187
CCCCCn1c(C)c(C(=O)c2cccc3cc(OC)ccc23)c2ccccc21	240

Request: Given COc1cc(C(C)(C)C)cc2c1[C@@H]1CC(CO)=CC[C@H]1C(C)(C)O2 [Compound 11a] , state its recorded Ki.
Response: 1860
